Test: TOX21_p53_BLA_p4_viability: Viability Assessment in the Tox21 HCT-116 p53 Agonism Beta-lactamase Assay, Phase 4 (AID 2283597);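 also: hits lower the luminescence signal meaning cytotoxicity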
Results filed as inconclusive are left out. Activity calls are given as the source filed them. The calls were made as follows: active = hit-call score of the fitted dose curve at least 0.9, where 1 is the maximum; inconclusive = response in the unintended direction; inactive = score below 0.9.
Select the matching outcome among yes (1) for active, no (0) for inactive

// known answers, use as guide
input: // return assay outcome for C=C(C)[C@@H]1CCC2=CCC[C@@H](C)[C@]2(C)C1
output: no (0)

input: Input CC=C1CC2C=CC1C2 (stereo not drawn)
output: no (0)

input: Next: CCCCCCC(O)CO (stereo not drawn)
output: no (0)

input: Same thing, different compound: SCCc1cnccn1
output: no (0)

input: Also check Cc1ccc(N/N=c2\c(=O)cc/c(=N/Nc3ccc(S(=O)(=O)O)cc3)c2=O)c(C)c1
output: no (0)

Continuing:
input: How did this test come out for COC(=O)c1ccc2cc(C(=O)OC)ccc2c1 ?
output: no (0)

input: Request: Cc1cccc(N(C)C(=S)Oc2ccc3ccccc3c2)c1
output: no (0)
